biological target: recombinant eIF4E (Homo sapiens (Human)); experiment: Fluorescence polarization competition assay for eIF4E binding potency; conditions: inhibition of eIF4E/EDA-m7GDP-ATTO-550 binding by 50%; Table 4B calculated values; read-out: IC50
readout-type: IC50 (nM)

These recorded examples may help you get a feel for the data.
cpd-smiles	IC50 (nM)
C#Cc1c(C(=O)O)cccc1-c1cc(Cl)ccc1OCCn1c(CF)nc2cc(C#N)cc(C#N)c2c1=O	16.3
Cc1nc2cc(C(F)(F)F)cc(C#N)c2c(=O)n1CCCc1ccc(Cl)cc1-c1cccc(C(=O)O)c1	259
Cc1nc2cnc(N(C)C3CCN(CC(C)(F)F)CC3)c(C#N)c2c(=O)n1CC#Cc1ccc(Cl)cc1-c1ccnc2c(C(=O)NS(=O)(=O)c3ccncc3)csc12	24.6
CCc1cccc(-c2c(C(F)(F)F)cc3nc(C)n(CCOc4ccc(Cl)cc4-c4cc(C)nc5c(C(=O)O)csc45)c(=O)c3c2C#N)n1	36.5

[I] Cc1nc2cnc(N(C)C34CCC(N(C)CCF)(CC3)C4)c(C#N)c2c(=O)n1CC#Cc1ccc(Cl)cc1-c1ccnc2c(C(=O)O)csc12
[II] Cc1cc(-c2cc(Cl)ccc2OCCn2c(C)nc3cc(C(F)(F)F)c(-n4ccnc4)c(C#N)c3c2=O)c2scc(C(=O)O)c2n1
// compare measured IC50, left I , right II , return larger # respond with the chosen item's label
I

----------
biological target: recombinant eIF4E (Homo sapiens (Human), UniProt P06730); assay: Fluorescence polarization competition assay for eIF4E binding potency; conditions: inhibition of eIF4E/EDA-m7GDP-ATTO-550 binding by 50%; Table 4B calculated values; read-out: IC50
Sequence (P06730 whole entry): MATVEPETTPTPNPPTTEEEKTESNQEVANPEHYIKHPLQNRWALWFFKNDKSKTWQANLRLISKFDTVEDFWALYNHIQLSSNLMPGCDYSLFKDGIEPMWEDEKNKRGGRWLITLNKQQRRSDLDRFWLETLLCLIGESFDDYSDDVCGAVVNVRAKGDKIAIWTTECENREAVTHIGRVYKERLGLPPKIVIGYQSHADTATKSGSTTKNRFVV
pIC50: −log10 of the molar value.
readout-type: pIC50

cpd-smiles	numeric-result
Cc1cc(-c2cc(Cl)ccc2OCCn2c(C)nc3cc(C(F)(F)F)c(Cl)c(C#N)c3c2=O)c2scc(C(=O)O)c2n1	7.57
CCC(F)(F)CN1CCC(N(C)c2ncc3nc(C)n(COCc4ccc(Cl)cc4-c4ccnc5c(C(=O)O)csc45)c(=O)c3c2C#N)CC1	7.89
Cc1nc2c(F)cc(C(F)F)c(C#N)c2c(=O)n1CCOc1cc(F)c(Cl)cc1-c1ccnc2c(C(=O)O)csc12	7.64
Cc1nc2cc(C(F)(F)F)cc(C#N)c2c(=O)n1CCOc1ccc(Cl)cc1-c1ccc(C(=O)O)c(C(=O)O)c1	7.32

[A] O=C(O)c1cccc(-c2cc(Cl)ccc2OCCn2cnc3nccnc3c2=O)c1
[B] Cc1nc2cc(C(F)(F)F)cc(C#N)c2c(=O)n1CCOc1ccc(Cl)cc1-c1cncc2c(C(=O)O)csc12
[C] Cc1cc(-c2cc(Cl)ccc2OCCn2c(C)nc3cnc(N4CC(C)(O)C4)c(C#N)c3c2=O)c2scc(C(=O)O)c2n1
List from greatest to least pIC50. Answer by listing the labels in the order asked for.
C, B, A
(C: 7.90, B: 7.27, A: 6.08)

----------
Biological target: recombinant eIF4E (Homo sapiens (Human))
Experiment: Fluorescence polarization competition assay for eIF4E binding potency
Details: inhibition of eIF4E/EDA-m7GDP-ATTO-550 binding by 50%; Table 4B calculated values; read-out: IC50
Protocol: Compounds were screened for eIF4E binding potency using a fluorescence polarization competition assay. All binding reactions were performed in fluorescence polarization buffer (FPB) containing 20 mM Tris pH 7.5, 100 mM NaCl, 1 mM DTT, and 0.02% Tween-20. Final binding reactions contained 75 nM recombinant eIF4E (Beryllium, custom order), 20 nM EDA-m^7GDP-ATTO-550 (Jena Bioscience, NU-827-550) and varying concentrations of the inhibitory compound of interest. […]
pIC50: −log10 of the molar value.
readout-type: pIC50

Solved cases below.
compound	measured-on	pIC50
Cc1cc(-c2cc(Cl)ccc2OCCn2c(C)nc3cc(C(F)(F)F)cc(C#N)c3c2=O)cc(C(=O)O)n1 [compound 410]	recombinant eIF4E (Homo sapiens (Human))	7.20
Cc1cc(-c2cc(Cl)ccc2OCCn2c(C)nc3cc(CN(C)C)c(OC(C)C)c(C#N)c3c2=O)c2scc(C(=O)O)c2n1 [compound 370]	recombinant eIF4E (Homo sapiens (Human))	7.92
Cc1cc(-c2cc(Cl)ccc2OCCn2c(C)nc3c(C)nc(CC4CCOCC4)c(C#N)c3c2=O)c2scc(C(=O)O)c2n1 [compound 400]	recombinant eIF4E (Homo sapiens (Human))	8.33
Cc1cc(-c2cc(Cl)ccc2OCCn2c(C)nc3cnc(C4CC4)c(C#N)c3c2=O)c2scc(C(=O)O)c2c1C [compound 771]	recombinant eIF4E (Homo sapiens (Human))	7.89
Cc1nc2cnc(N3CCN(C)C(C)(C)C3)c(C#N)c2c(=O)n1CCOc1ccc(Cl)cc1-c1ccnc2c(C(=O)O)csc12 [compound 815]	recombinant eIF4E (Homo sapiens (Human))	8.48

[1] Cc1nc2c(S(C)(=O)=O)ccc(C#N)c2c(=O)n1CCOc1ccc(Cl)cc1-c1ccnc2c(C(=O)O)csc12 [compound 229]
[2] Cc1cc(-c2cc(Cl)ccc2OCCn2c(C)nc3cnc(C(C)(C)C)c(C#N)c3c2=O)c2scc(C(=O)O)c2n1 [compound 420]
[3] COc1c(C)n(CCOc2ccc(Cl)cc2-c2ccnc3c(C(=O)O)csc23)c(=O)c2c(C#N)cc(C(F)(F)F)cc12 [compound 309]
// sort entries: pIC50, high to low // rank by listing labels in the order requested
2, 1, 3
(2: 8.02, 1: 7.65, 3: 7.28)

----------
target: recombinant eIF4E (Homo sapiens (Human)); experiment: Fluorescence polarization competition assay for eIF4E binding potency; conditions: inhibition of eIF4E/EDA-m7GDP-ATTO-550 binding; calculated IC50 values, Table 4B; read-out: IC50
readout-type: IC50 (nM)

Some solved entries appear below for comparison.
molecule	readout-type	numeric-result
Cc1nc2cnc(N3CC4(CCN4CC(F)F)C3)c(C#N)c2c(=O)n1CCOc1ccc(Cl)cc1-c1ccnc2c(C(=O)O)csc12 [compound 1634]	IC50	17.4
Cc1nc2c(N3CCN(CCOC(F)(F)F)CC3)ncc(C#N)c2c(=O)n1CCOc1ccc(Cl)cc1-c1ccnc2c(C(=O)O)csc12 [compound 1395]	IC50	29.6
Cc1nc2cnc(N3CCN(C4(C)CC4)CC3)c(C#N)c2c(=O)n1CCOc1ccc(Cl)cc1-c1ccnc2c(C(=O)O)csc12 [compound 1365]	IC50	34.1

[1] Cc1nc2cnc(CCN(C)CC(F)F)c(C#N)c2c(=O)n1CC#Cc1ccc(Cl)cc1-c1ccnc2c(C(=O)O)csc12 [compound 1492]
[2] Cc1nc2cnc(N(C)C3CCN([C@H]4C[C@H](OC(F)F)C4)CC3)c(C#N)c2c(=O)n1CC#Cc1ccc(Cl)cc1-c1ccnc2c(C(=O)NS(=O)(=O)c3cccnc3)csc12 [compound 1765]
Of 1 and 2 , whose reported IC50 is the larger number? Give the label of your selection.
1
(1: 20.1 nM, 2: 12.3 nM)

----------
target: recombinant eIF4E (Homo sapiens (Human), UniProt P06730); assay: Fluorescence polarization competition assay for eIF4E binding potency; conditions: fluorescence polarization competition, 75 nM recombinant eIF4E, 20 nM EDA-m7GDP-ATTO-550; IC50 class; read-out: elF4E FP
Entries and their measured IC50 follow.

Take a look at these entries with their results.
compound	result
Cc1cc(-c2cc(Cl)ccc2OCCn2c(C)nc3cc(C(F)(F)F)c(-c4cc(C)nn4C)c(C#N)c3c2=O)c2scc(C(=O)O)c2n1	< 50 nM
Cc1nc2c(C(F)(F)F)ccc(C#N)c2c(=O)n1CCOc1ccc(Cl)cc1-c1cccc(C(=O)O)c1	50 to 1000 nM
Cc1nc2cc(Cl)c(CN(C)C)c(C#N)c2c(=O)n1CCOc1ccc(Cl)cc1-c1ccnc2c(C(=O)O)csc12	50 to 1000 nM
CCc1cc(-c2cc(Cl)ccc2OCCn2c(C)nc3cnc(N4CCNC5CC54)c(C#N)c3c2=O)c2scc(C(=O)O)c2n1 (stereo not shown)	< 50 nM
COc1cc(-c2cc(Cl)ccc2OCCn2c(C)nc3cc(C(F)(F)F)c(N4CCN(C)CC4)c(C#N)c3c2=O)cc(C(=O)O)n1	50 to 1000 nM

So, Cc1cnc(-c2nc3c(=O)n(CCOc4ccc(Cl)cc4-c4cc(C)nc5c(C(=O)O)csc45)c(C)nc3cc2C(F)(F)F)c(Cl)n1 ? Its IC50 was < 50 nM

Memo: Cc1nc2cc(C(F)(F)F)cc(C#N)c2c(=O)n1CCOc1ccc(Cl)cc1-c1cccc2c1S(=O)(=O)C=C2C(=O)O , reported IC50: < 50 nM

Value of measured IC50 for the entry N#Cc1cc2c(=O)n(CCOc3ccc(Cl)cc3-c3ccc(F)c(C(=O)O)c3F)cnc2cn1 : 50 to 1000 nM

Short answer for Cc1cc(-c2cc(Cl)ccc2OCCn2c(C)nc3cnc(N(C)N(C)C)c(C#N)c3c2=O)c2scc(C(=O)O)c2n1 : IC50 was < 50 nM

Value of measured IC50 for the entry Cc1cc(-c2cc(Cl)ccc2OCCn2c(C)nc3cnc(C4CC4)c(C#N)c3c2=O)c2scc(C(=O)O)c2n1 : < 50 nM

Note to self: IC50 recorded for Cc1nc2ccc(S(=O)(=O)N(C)C)c(C#N)c2c(=O)n1CCOc1ccc(Cl)cc1-c1ccnc2c(C(=O)O)csc12 was < 50 nM

The reported IC50 of the compound Cc1nc2cnc(C3CC3)c(C#N)c2c(=O)n1CCOc1ccc(Cl)cc1Sc1cccc(C(=O)O)n1 was 50 to 1000 nM

Looking up Cc1cc(-c2cc(Cl)ccc2OCCn2c(C)nc3cc(C(F)(F)F)c(-c4ccn(C)n4)nc3c2=O)c2scc(C(=O)O)c2n1 , I see its IC50 listed as < 50 nM
